Reference for the values: the supplement of paper PMC10567573

Assay: protein stability index of a GFP-peptide fusion (GPS, HEK-293T) (PSI 1-6); higher = more stable;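 further: 24-mer peptide tiles fused after GFP, lentivirally expressed, FACS-sorted into six equal bins by GFP/DsRed ratio, decoded by Illumina sequencing, PSI is the read-weighted mean bin number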
Conditions: treatment: MLN4924 1 uM, 8 h; c terminus: a fixed tail appended
Hi there, I'd appreciate the recorded protein stability index for every entry that follows.
Answers are plain numbers.

Answered cases to consult:
> print(dat)
                      sequence.string  reported
1      GPPVGPLSLGLATVDIQNPDITSS [WAS]      4.39
2   DTGETSMLKRPVLLHLHQTAHADE [STEAP1]      4.88
3   VSKTLPSTWSDPSVNISLDNLLPG [CLINT1]      3.56
4     EDDWPRDVSLPRGAFPPRGPRPVQ [CDK4]       4.6
5     LSELYEESSDLQMDVMPGEGDLPQ [EID1]      5.12
6    LAEVAPVVTTEHILVSVAAGVSLS [PYCR3]      2.44
7   QKAPMTTVRGLHCMCTVGERLYVI [KLHL13]      2.75
8  QHTPDQANSDRASIGRRRTELRRS [PLEKHN1]      5.34

Would you mind listing protein stability index for each of the following sequences?
1. IQYEMEYTEGISQRMRVPEKLKVA [MFF]
2. VVVKLLHPPSHWPLIKATVGLIRN [CTNNB1]

Result ::
3.08
2.51

Hey, quick one: what's protein stability index for each of these?
1. STFSTNYRSLGSVQAPSYGARPVS [KRT18]
2. DLIESDPDAWCDLSKFDLPEEPSA [MYBL2]
3. RPDTGDDAAGHGFCYCAGSHKRKR [GMCL1]
4. LLETDAGPAASEGAEQPPDLHCVL [GADD45A]
5. DPLRSGTVLVSVTVFDANDNAPVF [PCDHGA10]
6. KSTMDAISAEGFTDIDIDTLCAVL [BTBD1]
7. LSHAGQKATAAFSNVGTAISKKFG [TPD52L1]

Result ::
3.61
5.02
4.47
4.78
2.82
2.33
3.66

Quick request: protein stability index for each listed item, please.
1. DLERQNQEYQVLLDVRARLECEIN [KRT33B]
2. DEEVSSLTCDALTELLAKITNTDV [CCND2]
3. YNSFHKLRDRAERIASRAIDNAAD [SNX8]
4. MSSENCFVAENSSLHPESGQENDA [CD69]
5. DVVALLINHGAEVTCKDKKGYTPL [ANKRD44]
6. KVIVVMRSLFIDRTIVKGYNENVY [MED27]
7. QKDSYQPPGNVYWPLRGKREAMLE [SPAG8]

Result ::
1. 3.58
2. 4.28
3. 4.14
4. 5.54
5. 2.27
6. 3.29
7. 3.62

----------
Test: protein stability index of a GFP-peptide fusion (GPS, HEK-293T) (PSI 1-6); higher = more stable
Conditions: treatment: MLN4924 1 uM, 8 h; c terminus: a fixed tail appended
QUANTITY MEASURED: protein stability index
Answers are plain numbers.

Would you please look over these solved cases?
> print(dat)
                    sequence.string  reported
1  KLWNPRNFKAHVSPHEMLQAVVLC [USP39]      2.88
2  IIHEAGYSEEECKQYKAVVYSNTI [GNAI1]      2.77
3  FGSRSLYSLGGVRSLNVASGSGKS [KRT71]      3.01

// each sequence listed below needs its protein stability index
1. GPQLEGEKDWGLEGYVWRGSQLED [ZSWIM9]
2. AAPAAGLCGAGSEPSIAPTSCAGN [RSPH3]

Result ::
4.45
4.68

For each of the items listed, what is its protein stability index?
1. NGLTPKKKIQVNSKPSIQPKPLLL [ATF6]
2. VWTNDQVVHWVQSIGLRDYAGNLH [PPFIA4]
3. VAQGPFDSFVVQYEDTNGQPQALL [TNXB]
4. GAVFNGITLLILAELLIFSVPIVY [RTN3]
5. VRTMQNTNDVETARCTAGTLHNLS [CTNNB1]
6. RDKAKMRNLETQHKVLELTAENER [CEBPB]
7. ENCTLVTTFRGHTGGVTALCWDPV [WDFY2]
8. TTYLKTIEVFDPDANTWRLYGGMN [KLHL20]

Result ::
[3.32, 2.11, 3.16, 2.9, 3.81, 5.24, 2.38, 2.26]

Hi! Can you tell me protein stability index for each of these sequences?
1. CVNMDRSFACQCPEGHVLRSDGKT [MATN2]
2. ELNKQVVSSSEQLQSCQAEIIELR [KRT34]
3. SRPSAPFTEASMMMSLTKLADKEL [ESR2]
4. PGSGPGHGSGSHPGPASGPGPDTG [SPAG8]

Result ::
1: 4.22; 2: 4.04; 3: 3.97; 4: 5.34

----------
Test: protein stability index of a GFP-peptide fusion (GPS, HEK-293T) (PSI 1-6); higher = more stable
Details: treatment: DMSO; c terminus: a fixed tail appended
Returns one of class 1 or class 0; class 1 when protein stability index is >= 4.

Here's what some known entries look like.
> print(dat)
                     sequence.string  qualitative.label
1    TLASAGGPDNLVLLNPEKYKAKSR [ADD1]            class 1
2   NDVRQSANYTCVAMSTLGVIEAIA [PTPRD]            class 0
3  TESQLTPCIRNVTSPTRQHHVERE [BTBD10]            class 1
4  LVATNAHLDHYYQEELPALLKALV [FCHSD1]            class 0
5   RAALKLEPSNKTIHAELSKLVKKH [FKBP8]            class 0
6  ELHPESGEEAVTLVEDMQRELGRL [ZNF263]            class 1

Query :: Evaluate PGESLECPAELRPQVPQPPSPAAV [TRAF3IP2] : protein stability index at minimum 4?
Result :: class 1

Query :: Decide: protein stability index of EDDDCDDDDDDDAQILPSRVQGGC [DRICH1] >= 4?
Result :: class 1

Query :: Has SSVCVQGRCIHAGCDRIIGSKKKF [ADAMTS4] a recorded protein stability index greater than or equal to 4?
Result :: class 0

Query :: Does protein stability index meet or surpass 4 for VVAVDRDSGQNAWLSYRLLKASEP [PCDHGA10] ?
Result :: class 0

----------
Experiment: protein stability index of a GFP-peptide fusion (GPS, HEK-293T) (PSI 1-6); higher = more stable
Settings: treatment: DMSO; c terminus: a fixed tail appended
Give measured protein stability index for each item. Keep answers brief.
Answers are plain numbers.

These solved cases illustrate the format of a correct answer.
> print(dat)
                     sequence.string  reported
1  AFTMAENLANCERLIEVEDMMVMG [SMTNL2]      2.58
2  NSSEELSSALHLSKGMSIFLDILR [NECAB1]      2.38
3    NTGKTYFFVANKYWRYDEYKRSMD [MMP1]      1.98
4   INIKGISEAKADKILAEAAKLVPM [RAD51]      2.62
5   GMSTIRPNPGFSMLDFLSERPWIK [APMAP]      2.62
6  TEATISIREDEVHRLGSPYGHCTA [SCNN1D]      3.93

Dear colleague, could you please provide protein stability index for the sequences listed below?
1. EERASLAGNRNSMVIHIPEEPRPS [KCNK9]
2. DPLRSGTVLVSVTVFDANDNAPVF [PCDHGA10]
3. KTLQPTKQPNCSSLFKLKPLSNKT [PLD5]
4. HYRASEEEPEYGEEIKGYPGVQAP [CHGB]
5. IKALFRKGKVLAQQGEYSEAIPIL [FKBP8]
6. VWTNDQVVHWVQSIGLRDYAGNLH [PPFIA4]
7. TRRKKGKKDKDISKEKDTQNQNIT [KMT2E]
8. QYREAAGPHEAFNKLWELCCQWLK [ZNF449]

Result ::
1. 4.82
2. 2.73
3. 3.08
4. 4.64
5. 2.54
6. 2.16
7. 4.75
8. 2.93

----------
Assay: protein stability index of a GFP-peptide fusion (GPS, HEK-293T) (PSI 1-6); higher = more stable
Conditions: treatment: DMSO; c terminus: a fixed tail appended
// false strictly below 3 in protein stability index; true otherwise

Known results for sequences:
> print(dat)
                      sequence.string  qualitative.label
1  PRPRRAKRFASLSRFVETLVVADD [ADAMTS4]               true
2     YRGTLKRQPAFDTFDGSLFAVFPS [ETS2]              false
3   RFRRFRFQEAAGPREALSRLQELC [ZNF263]              false
4    GHNDWVMDVAISNNKKWILSASKD [WDR88]               true
5     SLQESVEDSLATVKVVLIPVGQEI [IQUB]              false

Continue with the next sequence.
Query :: Exam item: decide whether the reported protein stability index for ARRTTRSEPIRRAGKSGTSTPTTP [MAP2] is at least 3.
Result :: true
